Target or system: LSM6 (UniProt P62312)
Sequence: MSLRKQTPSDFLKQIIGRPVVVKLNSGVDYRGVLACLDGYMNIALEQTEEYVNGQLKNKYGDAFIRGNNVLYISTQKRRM
Protocol text: EC50 of free RNA motif oligo competing protein binding to immobilised probe
Reported metric: pEC50
// field semantics: pEC50 = negative decimal log of concentration (mol/L)

[
  {
    "Seq text": "AAUAAA",
    "pEC50": 6.10
  }
]

Here is another sequence to look at.
Query: Look up pEC50 for this sequence: UAUUUAU
Response: 6.35

====

Target or system: MRPS26 (UniProt Q9BYN8)
Protocol text: Kd (EC50 corrected by depletion factor)
Reported metric: pKd
// field semantics: pKd = negative decimal log of concentration (mol/L)

Query: Look up pKd for this sequence: UAUUUAU
Response: 7.80

====

Target or system: HSP90AB2P (UniProt Q58FF8)
Sequence (Q58FF8 whole entry): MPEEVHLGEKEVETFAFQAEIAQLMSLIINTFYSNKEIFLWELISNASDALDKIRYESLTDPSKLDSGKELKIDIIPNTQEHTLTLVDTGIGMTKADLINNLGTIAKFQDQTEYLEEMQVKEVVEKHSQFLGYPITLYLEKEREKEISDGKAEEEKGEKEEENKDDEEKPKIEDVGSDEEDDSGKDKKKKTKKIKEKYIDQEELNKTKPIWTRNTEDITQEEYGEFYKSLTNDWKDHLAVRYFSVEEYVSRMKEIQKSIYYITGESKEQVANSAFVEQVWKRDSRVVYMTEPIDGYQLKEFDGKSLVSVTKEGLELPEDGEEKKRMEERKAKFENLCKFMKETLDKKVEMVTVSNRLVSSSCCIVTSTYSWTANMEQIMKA
Protocol text: EC50 of free RNA motif oligo competing protein binding to immobilised probe
Reported metric: EC50 (nM)
Only the number, expressed in nM, is required.

Query: Field: EC50 (HSP90AB2P (UniProt Q58FF8)). Entry: AAUAAA
Response: 129

====

Target or system: NKRF (UniProt O15226)
Sequence: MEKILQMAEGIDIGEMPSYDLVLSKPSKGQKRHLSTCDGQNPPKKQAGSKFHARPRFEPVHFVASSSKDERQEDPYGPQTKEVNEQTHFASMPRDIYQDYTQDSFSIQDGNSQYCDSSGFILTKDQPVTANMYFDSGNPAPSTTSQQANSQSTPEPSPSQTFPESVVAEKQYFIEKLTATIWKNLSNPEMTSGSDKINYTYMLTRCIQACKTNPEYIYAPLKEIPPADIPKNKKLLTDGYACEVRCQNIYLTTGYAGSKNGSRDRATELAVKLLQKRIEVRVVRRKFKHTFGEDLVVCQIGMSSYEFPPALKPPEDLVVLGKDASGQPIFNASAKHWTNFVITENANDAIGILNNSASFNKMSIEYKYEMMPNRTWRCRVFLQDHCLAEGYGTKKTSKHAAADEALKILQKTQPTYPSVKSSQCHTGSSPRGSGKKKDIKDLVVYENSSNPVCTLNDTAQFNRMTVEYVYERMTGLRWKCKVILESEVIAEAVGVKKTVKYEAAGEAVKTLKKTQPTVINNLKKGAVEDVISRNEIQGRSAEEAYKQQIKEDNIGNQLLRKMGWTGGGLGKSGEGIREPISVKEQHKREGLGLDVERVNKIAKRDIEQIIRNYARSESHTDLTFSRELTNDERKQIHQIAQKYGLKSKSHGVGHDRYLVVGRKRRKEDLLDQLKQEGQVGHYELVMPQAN
Protocol text: Kd (EC50 corrected by depletion factor)
Attribute: Kd
Only the number, expressed in nM, is required.

Below: 2 sequences and their reported Kd.
[
  {
    "Seq text": "CUGUCCU",
    "Target or system": "NKRF (UniProt O15226)",
    "Kd [nM]": 298
  },
  {
    "Seq text": "AAUAAA",
    "Target or system": "NKRF (UniProt O15226)",
    "Kd [nM]": 222
  }
]

Here is another sequence to look at.
Query: Look up Kd for this sequence: UAUUUAU
Response: 223

====

Target or system: TIA1 (UniProt P31483)
Sequence: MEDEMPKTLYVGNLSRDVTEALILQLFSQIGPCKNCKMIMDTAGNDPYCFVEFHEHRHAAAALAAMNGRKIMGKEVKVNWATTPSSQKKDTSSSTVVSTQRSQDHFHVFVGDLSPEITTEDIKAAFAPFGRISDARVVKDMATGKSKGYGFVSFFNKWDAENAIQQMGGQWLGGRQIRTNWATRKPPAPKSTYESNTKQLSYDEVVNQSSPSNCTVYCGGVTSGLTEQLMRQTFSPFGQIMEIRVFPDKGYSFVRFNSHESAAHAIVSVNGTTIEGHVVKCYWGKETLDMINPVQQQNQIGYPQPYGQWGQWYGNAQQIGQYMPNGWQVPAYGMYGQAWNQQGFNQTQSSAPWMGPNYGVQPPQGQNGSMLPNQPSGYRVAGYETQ
Protocol text: Kd (EC50 corrected by depletion factor)
Reported metric: Kd (nM)
Only the number, expressed in nM, is required.

Query: Look up Kd for this sequence: AAUAAA
Response: 158

====

Target or system: RPS3 (UniProt P23396)
Protocol text: Kd (EC50 corrected by depletion factor)
Reported metric: Kd (nM)
Only the number, expressed in nM, is required.

Query: Look up Kd for this sequence: CUGUCCU
Response: 109

====

Target or system: RBMS2 (UniProt Q15434)
Sequence: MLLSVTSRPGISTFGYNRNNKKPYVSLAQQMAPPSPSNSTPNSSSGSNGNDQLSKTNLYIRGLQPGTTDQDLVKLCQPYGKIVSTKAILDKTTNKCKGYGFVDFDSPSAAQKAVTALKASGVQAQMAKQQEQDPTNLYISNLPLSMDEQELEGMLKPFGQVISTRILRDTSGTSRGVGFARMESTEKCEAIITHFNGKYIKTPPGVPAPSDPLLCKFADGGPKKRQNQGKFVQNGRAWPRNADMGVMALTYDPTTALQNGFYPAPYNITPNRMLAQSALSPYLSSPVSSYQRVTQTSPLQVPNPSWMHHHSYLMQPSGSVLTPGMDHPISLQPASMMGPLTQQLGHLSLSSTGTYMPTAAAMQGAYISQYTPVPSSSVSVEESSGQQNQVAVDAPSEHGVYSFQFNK
Protocol text: Kd (EC50 corrected by depletion factor)
Attribute: pKd
// field semantics: pKd = negative decimal log of concentration (mol/L)

[
  {
    "Seq text": "AAUAAA",
    "pKd": 6.80
  }
]

Here is another sequence to look at.
Query: Field: pKd (RBMS2 (UniProt Q15434)). Entry: UAUUUAU
Response: 6.56

====

Target or system: RBMS1 (UniProt P29558)
Sequence: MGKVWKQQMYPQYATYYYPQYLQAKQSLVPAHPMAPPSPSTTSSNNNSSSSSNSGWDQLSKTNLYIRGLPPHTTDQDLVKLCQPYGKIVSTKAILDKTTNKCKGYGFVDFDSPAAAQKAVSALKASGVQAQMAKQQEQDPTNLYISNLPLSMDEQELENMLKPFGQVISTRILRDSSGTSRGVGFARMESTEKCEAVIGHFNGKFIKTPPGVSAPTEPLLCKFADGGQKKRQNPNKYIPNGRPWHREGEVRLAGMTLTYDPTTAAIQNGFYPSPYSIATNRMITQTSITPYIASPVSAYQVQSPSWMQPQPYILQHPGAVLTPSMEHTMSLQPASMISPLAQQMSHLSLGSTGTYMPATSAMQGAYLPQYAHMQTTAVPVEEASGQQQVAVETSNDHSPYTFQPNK
Protocol text: Kd (EC50 corrected by depletion factor)
Attribute: Kd
Only the number, expressed in nM, is required.

[
  {
    "Seq text": "AAUAAA",
    "Target or system": "RBMS1 (UniProt P29558)",
    "Kd (nM)": 156
  }
]

Here is another sequence to look at.
Query: Look up Kd for this sequence: UAUUUAU
Response: 114

====

Target or system: PCBP1 (UniProt Q15365)
Sequence (Q15365 whole entry): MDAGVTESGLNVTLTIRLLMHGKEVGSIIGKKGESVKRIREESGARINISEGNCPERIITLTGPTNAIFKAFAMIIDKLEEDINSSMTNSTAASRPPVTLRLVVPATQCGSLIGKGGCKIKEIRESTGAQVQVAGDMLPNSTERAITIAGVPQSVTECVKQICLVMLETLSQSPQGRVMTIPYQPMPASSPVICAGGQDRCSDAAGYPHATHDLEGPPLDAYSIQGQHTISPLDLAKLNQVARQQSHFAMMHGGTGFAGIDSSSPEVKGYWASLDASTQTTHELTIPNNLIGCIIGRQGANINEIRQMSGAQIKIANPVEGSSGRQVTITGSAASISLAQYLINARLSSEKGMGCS
Protocol text: EC50 of free RNA motif oligo competing protein binding to immobilised probe
Reported metric: pEC50
// field semantics: pEC50 = negative decimal log of concentration (mol/L)

Query: Look up pEC50 for this sequence: CUGUCCU
Response: 5.47

====

Target or system: MRPS34 (UniProt P82930)
Protocol text: Kd (EC50 corrected by depletion factor)
Reported metric: pKd
// field semantics: pKd = negative decimal log of concentration (mol/L)

Query: Look up pKd for this sequence: UAUUUAU
Response: 7.34

====

Target or system: HNRNPF (UniProt P52597)
Sequence: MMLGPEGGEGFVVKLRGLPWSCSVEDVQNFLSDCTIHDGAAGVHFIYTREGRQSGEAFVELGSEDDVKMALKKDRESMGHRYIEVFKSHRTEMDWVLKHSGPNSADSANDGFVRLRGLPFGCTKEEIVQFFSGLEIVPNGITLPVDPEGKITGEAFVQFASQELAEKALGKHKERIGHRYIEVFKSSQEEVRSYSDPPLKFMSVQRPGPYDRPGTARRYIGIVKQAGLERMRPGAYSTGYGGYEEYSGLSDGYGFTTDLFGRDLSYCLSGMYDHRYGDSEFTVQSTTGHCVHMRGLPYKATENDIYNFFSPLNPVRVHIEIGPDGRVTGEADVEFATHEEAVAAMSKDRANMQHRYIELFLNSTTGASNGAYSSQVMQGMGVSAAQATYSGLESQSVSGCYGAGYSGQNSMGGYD
Protocol text: Kd (EC50 corrected by depletion factor)
Reported metric: pKd
// field semantics: pKd = negative decimal log of concentration (mol/L)

Query: Field: pKd (HNRNPF (UniProt P52597)). Entry: AAUAAA
Response: 5.20
